Reference for the values: PubChem BioAssay

assay: PSAC antagonists in infected red cells, primary screen, cell-based, P. falciparum Indochina, OD700, 2 h (AID 1155);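 further: lysis reports solute entry through the parasite surface anion channel PSAC; channel blockers reduce lysis of infected cells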; conditions: P. falciparum Indochina infected erythrocytes, osmotic lysis OD700; higher = more signal, called active from +8 up or from −8 down
RESULT_TYPE: z-score

- COMPOUND: "CCOC(=O)[C@H](Cc1ccccc1)NC(=O)CCC1CC(OC(=O)NCc2ccc3c(c2)OCO3)CC2(CCCC(COC(=O)NCCCN3CCCC3=O)O2)O1 (stereo not given in full)"
  MEASURED_NUMBER: 0.274
- COMPOUND: "CO[C@@H]1C=CCC(=O)N[C@@H](C)C(=O)OC[C@@H](NS(=O)(=O)c2ccc(C)cc2)[C@H](C)C=CCC(=O)OC[C@H]1C"
  MEASURED_NUMBER: 0.149
- COMPOUND: "CC(C)(C)N1C(=O)[C@H]2[C@H]3[C@H](O)[C@H](O)CC(=NOC[C@@H](O)COCc4ccco4)[C@H]3CC[C@H]2C1=O"
  MEASURED_NUMBER: -0.423
- COMPOUND: "C[C@@H]1CC[C@H]2C(=O)O[C@@H](CN=[N+]=[N-])CN2[C@H]1c1ccc(Br)cc1"
  MEASURED_NUMBER: 8.11
- COMPOUND: "CON=C1c2cc(OC)ccc2O[C@H](c2cccc(OC)c2)[C@H]1O"
  MEASURED_NUMBER: 0.72
- COMPOUND: "COC(=O)[C@H](C)NC(=O)CCC1CC(OC(=O)NCCc2ccc(F)cc2)CC2(CCCC(COC(=O)NCCOc3ccccc3)O2)O1 (stereo not given in full)"
  MEASURED_NUMBER: -0.257
- COMPOUND: "COC(=O)[C@@H]1CC[C@H](C)[C@@H](c2ccc(Br)cc2)N1C(=O)C(F)(F)F"
  MEASURED_NUMBER: -0.0008
- COMPOUND: "C[C@H]1CC[C@@H](C(=O)O)N[C@@H]1c1cccc(N2CCCC2=O)c1"
  MEASURED_NUMBER: 0.677
- COMPOUND: "C#CCCCON=C1[C@H]2CCn3c(=O)n([C@@H](CC)c4ccccc4)c(=O)n3[C@H]2[C@H](O)[C@@H]2O[C@H]12"
  MEASURED_NUMBER: 0.193
- COMPOUND: "O=C1[C@H]2[C@H]3[C@H](O)[C@H](O)CC(=NO[C@@H]4O[C@H](CO)[C@@H](O)[C@H](O)[C@H]4O)[C@H]3CC[C@H]2C(=O)N1C[C@@H]1CCCO1"
  MEASURED_NUMBER: 0.544
- COMPOUND: "O=C1[C@H]2[C@H]3[C@H](O)[C@H](O)CC(=NOCc4ccccc4)[C@@H]3CC[C@H]2C(=O)N1c1cccc(Oc2ccccc2)c1"
  MEASURED_NUMBER: 1.72
- COMPOUND: "COC(=O)CC=C[C@@H](C)[C@@H](C=NOC(C)CN1CCCc2nc(C)c(C)cc21)NS(=O)(=O)c1ccc(C)cc1 (stereo not given in full)"
  MEASURED_NUMBER: 0.584
- COMPOUND: "COC(=O)CC=C[C@@H](C)[C@@H](C=NOC[C@@H](O)[C@H]1O[C@@H]2OC(C)(C)O[C@@H]2[C@H]1O)OC"
  MEASURED_NUMBER: 0.453
- COMPOUND: "CC[C@@H](c1ccccc1)n1c(=O)n2n(c1=O)[C@H]1[C@H](O)[C@@H]3O[C@@H]3C(=NOCc3ccccc3)[C@H]1CC2"
  MEASURED_NUMBER: 0.0656
- COMPOUND: "COC(=O)CC=C[C@@H](C)[C@@H](C=NOC(C)CN1CCCCc2nc(C)c(C)cc21)NS(=O)(=O)c1ccc(C)cc1 (stereo not given in full)"
  MEASURED_NUMBER: 0.36
- COMPOUND: "CC(C)CON=C1C[C@@H](O)[C@@H](O)[C@@H]2[C@@H]3C(=O)N(C(C)(C)C)C(=O)[C@@H]3CC[C@@H]12"
  MEASURED_NUMBER: -0.692
- COMPOUND: "CC(C)=NOC(C)CN1CCCc2nc(C)c(C)cc21 (stereo not given)"
  MEASURED_NUMBER: 0.774
- COMPOUND: "CCOC(=O)[C@H](Cc1ccccc1)NC(=O)CCC1CC(OC(=O)NCCc2ccc(F)cc2)CC2(CCCC(COC(=O)NCCOc3ccccc3)O2)O1 (stereo not given in full)"
  MEASURED_NUMBER: 0.363
- COMPOUND: "COC(=O)CC=C1c2ccccc2[C@H](OC)[C@H]1C"
  MEASURED_NUMBER: 0.269
- COMPOUND: "C[C@H]1CC[C@H]2C(=O)N[C@H](Cc3ccccc3)C(=O)N2[C@@H]1c1ccccc1"
  MEASURED_NUMBER: 0.405
- COMPOUND: "CCOC(=O)[C@H](CC(C)C)NC(=O)CCC1CC(OC(=O)NCc2ccc3c(c2)OCO3)CC2(CCCC(COC(=O)NCCc3ccccc3OC)O2)O1 (stereo not given in full)"
  MEASURED_NUMBER: -0.213
- COMPOUND: "CC(CCC(=O)OC[C@H]1O[C@H](C#Cc2ccccc2)C=C[C@@H]1Oc1ccc(C)cc1)=NOC(C)CN1CCCc2nc(C)c(C)cc21 (stereo not given in full)"
  MEASURED_NUMBER: 0.859
- COMPOUND: "COc1ccc(O[C@H]2C=C[C@@H](C#Cc3ccccc3)O[C@@H]2CO)cc1"
  MEASURED_NUMBER: 0.323
- COMPOUND: "CC(CCN1CCCCc2nc(C)c(C)cc21)=NO[C@H](C)c1cn([C@@H]2COC[C@H]2O)nn1"
  MEASURED_NUMBER: 0.406
- COMPOUND: "COC(=O)CC=C[C@@H](C)[C@@H](C=NOC[C@@H](C)[C@H](OCc1ccccc1)C(C)C)NS(=O)(=O)c1ccc(C)cc1"
  MEASURED_NUMBER: 0.988
- COMPOUND: "C#CCCCON=C1C[C@@H](O)[C@@H](O)[C@@H]2[C@@H]3C(=O)N(C4CCCCC4)C(=O)[C@@H]3CC[C@@H]12"
  MEASURED_NUMBER: -0.164
- COMPOUND: "O=C1C=C[C@@H](O)[C@@H]2[C@@H]3C(=O)N(Cc4ccc5c(c4)OCO5)C(=O)[C@@H]3CC[C@@H]12"
  MEASURED_NUMBER: -0.0262
- COMPOUND: "C[C@@H](c1ccccc1)N1C(=O)[C@H]2[C@H]3[C@H](O)[C@H](O)CC(=NOC[C@@H](O)COCc4ccco4)[C@H]3CC[C@H]2C1=O"
  MEASURED_NUMBER: -0.0645
- COMPOUND: "CCOC(=O)[C@H](CC(C)C)NC(=O)CCC1CC(OC(=O)NCc2ccc3c(c2)OCO3)CC2(CCCC(COC(=O)NCCc3ccc(Cl)cc3)O2)O1 (stereo not given in full)"
  MEASURED_NUMBER: -0.39
- COMPOUND: "CC(CCN1CCCc2nc(C)c(C)cc21)=NOC[C@@H](O)COCc1ccco1"
  MEASURED_NUMBER: 0.281
